biological target: human CD33 G94A (human, UniProt P20138 18-364); test: flow cytometry on HEK293-T, alanine scan
Sequence (P20138 18-364 G94A limits assumed): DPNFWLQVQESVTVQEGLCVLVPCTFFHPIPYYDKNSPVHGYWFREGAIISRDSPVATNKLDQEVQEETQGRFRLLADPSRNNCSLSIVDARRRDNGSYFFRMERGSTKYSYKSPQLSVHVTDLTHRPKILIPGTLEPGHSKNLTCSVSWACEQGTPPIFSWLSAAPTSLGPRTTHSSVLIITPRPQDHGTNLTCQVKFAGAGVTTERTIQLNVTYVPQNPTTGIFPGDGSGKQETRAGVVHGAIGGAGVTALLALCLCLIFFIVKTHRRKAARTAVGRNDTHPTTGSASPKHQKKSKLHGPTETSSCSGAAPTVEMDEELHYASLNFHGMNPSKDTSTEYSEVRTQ
test.readout: Mean % WT Binding
Show the value, then the unit it is measured in.

-- ask Return value of Mean % WT Binding for input Refmab #2 (antibody, V domains shown, The alanine scan used IgG or Fab) VH: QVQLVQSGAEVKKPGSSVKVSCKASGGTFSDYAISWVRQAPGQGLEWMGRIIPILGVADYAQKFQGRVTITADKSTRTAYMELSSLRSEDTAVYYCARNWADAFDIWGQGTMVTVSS VL: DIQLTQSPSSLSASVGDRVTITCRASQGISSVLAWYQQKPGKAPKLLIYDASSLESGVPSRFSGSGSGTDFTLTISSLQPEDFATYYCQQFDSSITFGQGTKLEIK , no commentary.
-- reply 108 % WT binding

-- ask Return value of Mean % WT Binding for input Refmab #4 (antibody, V domains shown, The alanine scan used IgG or Fab) VH: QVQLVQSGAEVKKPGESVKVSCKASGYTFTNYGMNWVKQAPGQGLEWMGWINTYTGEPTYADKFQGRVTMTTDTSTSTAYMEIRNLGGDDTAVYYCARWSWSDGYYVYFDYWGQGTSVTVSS VL: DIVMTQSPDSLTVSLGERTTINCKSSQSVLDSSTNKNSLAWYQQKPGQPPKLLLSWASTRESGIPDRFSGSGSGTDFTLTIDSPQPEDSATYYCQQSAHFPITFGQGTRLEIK , no commentary.
-- reply 59 % WT binding

-- ask Return value of Mean % WT Binding for input Refmab #3 (antibody, V domains shown, The alanine scan used IgG or Fab) VH: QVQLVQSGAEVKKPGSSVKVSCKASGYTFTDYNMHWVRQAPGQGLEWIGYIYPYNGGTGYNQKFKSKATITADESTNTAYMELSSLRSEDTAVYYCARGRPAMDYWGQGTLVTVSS VL: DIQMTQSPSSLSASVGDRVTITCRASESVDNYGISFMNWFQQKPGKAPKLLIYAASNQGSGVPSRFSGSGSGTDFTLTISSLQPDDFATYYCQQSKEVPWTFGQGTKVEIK , no commentary.
-- reply 115 % WT binding
